// data source = the supplement of paper PMC11208160

For each of the sequences below, state its recombinant UMI read abundance (log10).
assay_name: recombinant UMI read abundance after kanamycin selection (control-corrected) (log10(CPM+1)); higher = more efficient recombination; extreme values may be limits of the assay; sequences stand for … in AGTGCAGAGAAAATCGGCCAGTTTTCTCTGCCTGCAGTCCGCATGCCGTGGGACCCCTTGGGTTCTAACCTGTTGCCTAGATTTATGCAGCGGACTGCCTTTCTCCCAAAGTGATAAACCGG…AGGTTGGTTTCACT; site = the 11-nt donor;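 also: IS621 bridge recombinase in Escherichia coli cells against a fixed T5 target plasmid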

For TGGTAGGCATGGACCGGTTTTCCCGGTAATCCGTATTTGGT (site TGATAGGCTAC) the sequence record lists recombinant UMI read abundance (log10) as 0.0183

Lookup result for GAAAGTCCATGGACCGGTTTTCCCGGTAATCCGTATTTGTA (site AAAAGTCCTTA) ; measured recombinant UMI read abundance (log10): 0

Consider CGTTTGGCATGGACCGGTTTTCCCGGTAATCCGTATTTGCA (site CGTTTGGCTCG) . Its measured recombinant UMI read abundance (log10) is 0.024

Given item CCATGCTCATGGACCGGTTTTCCCGGTAATCCGTATTTGAA (site CCATGCTCTTT) , the value recorded as its recombinant UMI read abundance (log10) is 0.703

---

Provide the recorded recombinant UMI read abundance (log10) for the entries that follow.
assay_name: recombinant UMI read abundance after kanamycin selection (control-corrected) (log10(CPM+1)); higher = more efficient recombination; extreme values may be limits of the assay; sequences stand for … in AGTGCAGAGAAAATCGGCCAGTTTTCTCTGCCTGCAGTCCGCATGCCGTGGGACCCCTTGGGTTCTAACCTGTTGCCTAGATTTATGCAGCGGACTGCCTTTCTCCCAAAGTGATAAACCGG…AGGTTGGTTTCACT; site = the 11-nt donor
Answer using only a numeral; do not append any unit.

// recombinant UMI read abundance (log10) lookup, sequence = CAGTCGACATGGACCGGTTTTCCCGGTAATCCGTATTTGGG (site CAGTTGACTCC) , result: 0.0173

Query GGGGCCCCATGGACCGGTTTTCCCGGTAATCCGTATTTGCA (site GGGGCTCCTTG) yields recombinant UMI read abundance (log10) of 0.0122

// recorded recombinant UMI read abundance (log10) for ATCTATTCATGGACCGGTTTTCCCGGTAATCCGTATTTGAC (site ATCTATGCTGT) : 0

---

assay_name: recombinant UMI read abundance after kanamycin selection (control-corrected) (log10(CPM+1)); higher = more efficient recombination; extreme values may be limits of the assay; sequences stand for … in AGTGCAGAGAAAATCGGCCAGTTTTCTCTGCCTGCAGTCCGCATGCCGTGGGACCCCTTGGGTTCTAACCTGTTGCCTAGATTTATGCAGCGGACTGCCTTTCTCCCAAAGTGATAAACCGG…AGGTTGGTTTCACT; site = the 11-nt donor
Each entry falls in a class defined on recombinant UMI read abundance (log10); the bands are small value (below 0.01), mid value (0.01 to below 0.3), large value (0.3 or more)

query: Entry TGATCCCCATGGACCGGTTTTCCCGGTAATCCGTATTTGTA (site TGTTCCCCTTA) belongs to which category?
result: mid value

query: For the record CGGGAGTCATGGACCGGTTTTCCCGGTAATCCGTATTTGCT (site CGGGAGTCTAG) , report the class its recombinant UMI read abundance (log10) corresponds to.
result: large value

query: Class label required: GTAGGTACATGGACCGGTTTTCCCGGTAATCCGTATTTGAT (site GTAGGTACTGT)
result: large value

query: Class label required: GGCCACCCATGGACCGGTTTTCCCGGTAATCCGTATTTGTT (site GGCCACCCTTA)
result: small value

query: Returns: class label. Input: TGTATACCATGGACCGGTTTTCCCGGTAATCCGTATTTGAC (site TGTACACCTGT)
result: small value

query: Kindly identify the class of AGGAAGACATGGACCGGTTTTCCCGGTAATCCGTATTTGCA (site AGGGAAACTTG) .
result: small value

query: Assign a bin to ACTCTCCCATGGACCGGTTTTCCCGGTAATCCGTATTTGGA (site ACTCTCCCTTC)
result: mid value

query: Which bin, given its recombinant UMI read abundance (log10), does CACTCGGCATGGACCGGTTTTCCCGGTAATCCGTATTTGGA (site CACTAGGCTTC) occupy?
result: mid value

query: Pick a category. Item: TAGCTAGCATGGACCGGTTTTCCCGGTAATCCGTATTTGAA (site TAGATAGCTTT)
result: mid value

query: Exercise: read the entry CCGTTAGCATGGACCGGTTTTCCCGGTAATCCGTATTTGTG (site CAGTTAGCTCA) and state which class it falls under.
result: small value

query: Note: place this sequence into its band. Item: CCAGGTGCATGGACCGGTTTTCCCGGTAATCCGTATTTGAT (site CTAGGTGCTAT)
result: large value

query: Hello team, could you let me know which band the following sequence falls into: CCTACTGCATGGACCGGTTTTCCCGGTAATCCGTATTTGCC (site CCTACTGCTGG)
result: mid value

query: Please let me know in which category the item CGGACATCATGGACCGGTTTTCCCGGTAATCCGTATTTGCT (site CGGCCATCTAG) belongs.
result: mid value

query: Hey, which category is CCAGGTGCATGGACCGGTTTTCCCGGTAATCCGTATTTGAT (site CCAAGTGCTAT) in, do you know?
result: large value
